These data points were gathered from patent US9605006B2.

Target: UniProt P56817
Test: Cellular Aβ-lowering assay (Abeta 40 AlphaLISA Assay)
Details: HEK293 APP cells, Aβ40 in culture supernatant after 18-20 hrs incubation
assay readout: IC50 (nM)

Below, each entry is followed by its recorded IC50 result.
molecule: C[C@@]1(c2cc(NC(=O)c3ccc(OCC(F)(F)F)cn3)ccc2F)CS2(=O)=NCCCCN2C(N)=N1 (stereo in doubt)
IC50 (nM): 10

molecule: C[C@@]1(c2cc(-c3cc(-c4ncc(Cl)cn4)no3)ccc2F)C[S@]2(=O)=NCCCCN2C(N)=N1
IC50 (nM): 95

molecule: C[C@@]1(c2cc(NC(=O)c3ncc(C#N)cc3Cl)ccc2F)CS2(=O)=NCCCCN2C(N)=N1 (stereo in doubt)
IC50 (nM): 1

molecule: CC#CCOc1cnc(C(=O)Nc2ccc(F)c([C@]3(C)CS4(=O)=NCCCCN4C(N)=N3)c2)cn1 (stereo in doubt)
IC50 (nM): 0.2

molecule: COc1cnc(-c2cc(-c3ccc(F)c([C@]4(C)C[S@]5(=O)=NCCCCN5C(N)=N4)c3)on2)cn1
IC50 (nM): 694

1. Cc1cc(C#N)cnc1C(=O)Nc1ccc(F)c([C@]2(C)CS3(=O)=NCC(F)(F)CN3C(N)=N2)c1 (some centres unmarked)
2. C[C@@]1(c2cc(-c3cc(-c4cnc(OCC(F)F)cn4)no3)ccc2F)C[S@@]2(=O)=NCCCCN2C(N)=N1
query: Smaller IC50 value? Options are 1 and 2 Provide the label of your selected option as the answer.
result: 1
(1: 2 nM, 2: 14 nM)

----------
Molecular target: BACE1 (Homo sapiens (Human))
Sequence (P56817 46-501): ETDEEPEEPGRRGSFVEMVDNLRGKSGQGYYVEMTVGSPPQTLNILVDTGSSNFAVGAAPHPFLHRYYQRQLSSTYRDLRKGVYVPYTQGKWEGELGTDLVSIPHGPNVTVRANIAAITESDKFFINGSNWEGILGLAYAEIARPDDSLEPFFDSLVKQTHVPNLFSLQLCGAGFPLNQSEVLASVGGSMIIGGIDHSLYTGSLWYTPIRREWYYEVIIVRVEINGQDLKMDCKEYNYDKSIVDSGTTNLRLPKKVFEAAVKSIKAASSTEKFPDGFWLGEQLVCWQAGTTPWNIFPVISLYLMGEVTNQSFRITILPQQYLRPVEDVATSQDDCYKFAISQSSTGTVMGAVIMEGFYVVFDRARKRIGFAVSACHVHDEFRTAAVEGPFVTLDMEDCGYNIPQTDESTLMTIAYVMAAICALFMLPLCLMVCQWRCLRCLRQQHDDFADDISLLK
Test: Cellular Aβ-lowering assay (Abeta 40 AlphaLISA Assay)
Conditions: HEK293 APP cells, Aβ40 in culture supernatant after 18-20 hrs incubation
assay readout: IC50 (nM)

A. Cc1cc(F)cnc1C(=O)Nc1ccc(F)c([C@]2(C)CS3(=O)=NCCCCN3C(N)=N2)c1 (stereo in doubt)
B. C[C@@]1(c2cc(C#Cc3ccc(C#N)cc3)ccc2F)C[S@@]2(=O)=NCCCCN2C(N)=N1
C. CC1(c2ccccc2F)CS2(=O)=NCCCCN2C(N)=N1 (stereo in doubt)
D. COc1cnc(-c2cc(-c3ccc(F)c([C@]4(C)C[S@@]5(=O)=NCCCCN5C(N)=N4)c3)on2)cn1
query: Rank the 4 compounds: largest IC50 first, smallest last. # answer = labels listed in requested order
result: C, B, D, A
(C: 1040 nM, B: 21 nM, D: 9 nM, A: 1.5 nM)

1. C[C@@]1(c2cc(-c3cc(-c4ncc(Cl)cn4)no3)ccc2F)C[S@@]2(=O)=NCCCCN2C(N)=N1
2. CC1(c2cc(NC(=O)c3ccc(C#N)cn3)ccc2F)CS2(=O)=NCCCCN2C(N)=N1 (stereo in doubt) [Example 1]
query: Smaller IC50 value? Options are 1 and 2 Provide the label of your selected option as the answer.
result: 1
(1: 12 nM, 2: 45 nM)
